Molecular target: T1, SH2 domain of Crkl protein (residues 1-111), H91A variant (UniProt P46109 1-111, H91A)
T1 construct: Crkl adaptor protein, SH2 domain, residues 1-111, His91 replaced by alanine; Site-directed mutant of m1 (QuikChange); source: E. coli BL21 (DE3), purified (HisTrap nickel column, desalting); not shown: His tag, N-terminal, kept
T1 sequence (P46109 1-111 H91A): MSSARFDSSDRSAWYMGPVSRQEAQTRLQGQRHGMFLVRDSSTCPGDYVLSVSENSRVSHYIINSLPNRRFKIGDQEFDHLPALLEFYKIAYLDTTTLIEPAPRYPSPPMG
Experiment: stopped-flow fluorescence kinetics (FRET); dansyl-Pax112-123 constant at 2 μM mixed with Crkl-SH2 2 to 10 μM (pseudo-first-order, kon); koff by displacement of the preincubated 2 µM complex with excess non-dansylated Pax112-123 (30 μM); 283 K; 50 mM sodium-HEPES pH 7.5, 0.5 M NaCl
Details: both partners purified
pKd: −log10 of the molar value. Square brackets hold non-standard residues; d marks the D form. Ends that are not written are not given here. * marks the point of attachment. pY = N[C@@H](Cc1ccc(OP(=O)(O)O)cc1)C(=O)O; Dansyl = CN(C)c1cccc2c(S(=O)(=O)*)cccc12

Binder: Dansyl-GEEEHV[pY]SFPNK (The dansyl group is the FRET acceptor of Trp14 of the SH2 domain; source: synthetic peptide, bought: GenScript) [dansylated Pax_(112–123) peptide (Dans-GEEEHV-pY-SFPNK)]
pKd: 5.59
